This collection of values is drawn from the supplement of paper PMC12350171.

List of IC25 growth inhibition values.
system: Bacteroides thetaiotaomicron; assay: IC25 growth inhibition; higher = less potent

Example cases with answers are listed next.
Compound: O=c1oc2ccccc2c(O)c1Cc1c(O)c2ccccc2oc1=O
IC25 growth inhibition: ≤ 80 µM

Compound: CCOC1O[C@H]([C@@H](COCc2ccccc2)OCc2ccccc2)[C@H](OCc2ccccc2)[C@H]1O (some centres not stated) [Tribenoside]
IC25 growth inhibition: > 40 µM

Compound: Cc1c(Cl)cccc1Nc1ccccc1C(=O)O
IC25 growth inhibition: ≤ 160 µM

Compound: CC[C@H]1OC(=O)[C@H](C)[C@@H](O[C@H]2C[C@@](C)(OC)[C@@H](O)[C@H](C)O2)[C@H](C)[C@@H](O[C@@H]2O[C@H](C)C[C@H](N(C)C)[C@H]2O)[C@](C)(OC)C[C@@H](C)C(=O)[C@H](C)[C@@H](O)[C@]1(C)O
IC25 growth inhibition: < 1.25 µM

Compound: O=C1CCc2ccc(OCCCCN3CCN(c4cccc(Cl)c4Cl)CC3)cc2N1
IC25 growth inhibition: > 160 µM

So, NC[C@H]1O[C@H](O[C@H]2[C@H](O)[C@@H](O[C@H]3O[C@H](CO)[C@@H](O)[C@H](N)[C@H]3O)[C@H](N)C[C@@H]2N)[C@H](N)C[C@@H]1O ? Its IC25 growth inhibition was > 160 µM

So, Clc1ccc(COC(Cn2ccnc2)c2ccc(Cl)cc2Cl)c(Cl)c1 (configuration not stated) ? Its IC25 growth inhibition was > 160 µM

====

List of IC25 growth inhibition values.
system: Clostridium bolteae; assay: IC25 growth inhibition; higher = less potent

Example cases with answers are listed next.
Compound: CN(Cc1cnc2nc(N)nc(N)c2n1)c1ccc(C(=O)N[C@@H](CCC(=O)O)C(=O)O)cc1 [Methotrexate]
Reported property: IC25 growth inhibition
Reported measurement: ≤ 10 µM

Compound: Cc1c(Cl)cccc1Nc1ccccc1C(=O)O [Tolfenamic acid]
Reported property: IC25 growth inhibition
Reported measurement: > 160 µM

Compound: COc1cccc2c1C(=O)c1c(O)c3c(c(O)c1C2=O)C[C@@](O)(C(=O)CO)C[C@@H]3O[C@H]1C[C@H](N)[C@H](O)[C@H](C)O1 [Doxorubicin]
Reported property: IC25 growth inhibition
Reported measurement: ≤ 20 µM

So, COc1cc(C(=O)NS(=O)(=O)c2ccccc2C)ccc1Cc1cn(C)c2ccc(NC(=O)OC3CCCC3)cc12 [Zafirlukast] ? Its IC25 growth inhibition was ≤ 80 µM

So, C[C@H]1O[C@H](O[C@H]2[C@H](O)[C@@H](O)[C@@H](O[C@H]3[C@H](O)[C@@H](O)C(O)O[C@@H]3CO)O[C@@H]2CO)[C@H](O)[C@@H](O)[C@@H]1N[C@H]1C=C(CO)[C@@H](O)[C@H](O)[C@H]1O (stereo partly specified) [Acarbose] ? Its IC25 growth inhibition was > 160 µM

====

test system: Com21 synthetic gut community; assay: community biomass OD578 after 24 h drug treatment relative to untreated (fraction of untreated control); higher = more community growth; conditions: drug pretreatment concentration 160 µM; community: Com21 (Com20 + E. coli ED1a)
List of community biomass OD578 values.
When you answer, write just the number.

Example cases with answers are listed next.
Compound: CCC(C)(C)C(=O)O[C@H]1C[C@@H](C)C=C2C=C[C@H](C)[C@H](CC[C@@H]3C[C@@H](O)CC(=O)O3)[C@H]21
Tested target: Com21 synthetic gut community
Reported measurement: 0.687
//
Compound: Cc1c(Cl)cccc1Nc1ccccc1C(=O)O
Tested target: Com21 synthetic gut community
Reported measurement: 0.864
//
Compound: CC(CN1c2ccccc2Sc2ccccc21)N(C)C (stereo unspecified)
Tested target: Com21 synthetic gut community
Reported measurement: 0.949
//
Compound: COc1cc(C(=O)NS(=O)(=O)c2ccccc2C)ccc1Cc1cn(C)c2ccc(NC(=O)OC3CCCC3)cc12
Tested target: Com21 synthetic gut community
Reported measurement: 0.841
//
Compound: CN1CCN(C2=Nc3ccccc3Oc3ccc(Cl)cc32)CC1
Tested target: Com21 synthetic gut community
Reported measurement: 0.951

So, CC(C)(C)c1ccc(C(O)CCCN2CCC(C(O)(c3ccccc3)c3ccccc3)CC2)cc1 (stereo unspecified) ? Its community biomass OD578 was 0.35

So, C[C@@H](O[C@H]1OCCN(Cc2n[nH]c(=O)[nH]2)[C@H]1c1ccc(F)cc1)c1cc(C(F)(F)F)cc(C(F)(F)F)c1 [Aprepitant] ? Its community biomass OD578 was 1.01

So, CCN(CC)CCOc1ccc(C(=C(Cl)c2ccccc2)c2ccccc2)cc1 ? Its community biomass OD578 was 0.335

So, CN(C)CC/C=C1/c2ccccc2Sc2ccc(Cl)cc21 ? Its community biomass OD578 was 0.48

So, CCC[C@@H]1C[C@@H](C(=O)N[C@@H]([C@H]2O[C@H](SC)[C@H](O)[C@@H](O)[C@H]2O)[C@H](C)Cl)N(C)C1 ? Its community biomass OD578 was 0.062

So, NC[C@H]1O[C@H](O[C@H]2[C@H](O)[C@@H](O[C@H]3O[C@H](CO)[C@@H](O)[C@H](N)[C@H]3O)[C@H](N)C[C@@H]2N)[C@H](N)C[C@@H]1O ? Its community biomass OD578 was 0.992

So, Clc1ccc(COC(Cn2ccnc2)c2ccc(Cl)cc2Cl)c(Cl)c1 (stereo unspecified) ? Its community biomass OD578 was 0.547

====

test system: Vibrio cholerae; experiment: IC25 growth inhibition; higher = less potent
Reported property: IC25 growth inhibition

Compound: O=C1NCCN1CCN1CCC(c2cn(-c3ccc(F)cc3)c3ccc(Cl)cc23)CC1
IC25 growth inhibition: ≤ 80 µM

Compound: CC/C(=C(\c1ccccc1)c1ccc(OCCN(C)C)cc1)c1ccccc1
IC25 growth inhibition: > 40 µM

Compound: CNCCCC1c2ccccc2C=Cc2ccccc21
IC25 growth inhibition: > 160 µM

So, CCC(C)(C)C(=O)O[C@H]1C[C@@H](C)C=C2C=C[C@H](C)[C@H](CC[C@@H]3C[C@@H](O)CC(=O)O3)[C@H]21 ? Its IC25 growth inhibition was > 80 µM

So, Cc1c(OCC(F)(F)F)ccnc1C[S+]([O-])c1nc2ccccc2[nH]1 (centres undefined) ? Its IC25 growth inhibition was > 160 µM

So, Cc1c(Cl)cccc1Nc1ccccc1C(=O)O ? Its IC25 growth inhibition was ≤ 80 µM

So, CN(N=O)C(=O)N[C@@H](C=O)[C@@H](O)[C@H](O)[C@H](O)CO ? Its IC25 growth inhibition was ≤ 2.5 µM

So, CN1CCN(C2=Nc3ccccc3Oc3ccc(Cl)cc32)CC1 ? Its IC25 growth inhibition was ≤ 80 µM

So, CC(C)(C)c1ccc(C(O)CCCN2CCC(C(O)(c3ccccc3)c3ccccc3)CC2)cc1 (centres undefined) ? Its IC25 growth inhibition was > 40 µM

So, CCN(CC)CCOc1ccc(C(=C(Cl)c2ccccc2)c2ccccc2)cc1 ? Its IC25 growth inhibition was ≤ 80 µM

So, OC(Cn1cncn1)(Cn1cncn1)c1ccc(F)cc1F ? Its IC25 growth inhibition was > 160 µM

So, CC(C)(O)c1ccccc1CC[C@@H](SCC1(CC(=O)O)CC1)c1cccc(/C=C/c2ccc3ccc(Cl)cc3n2)c1 ? Its IC25 growth inhibition was > 20 µM

So, O=C1CCc2ccc(OCCCCN3CCN(c4cccc(Cl)c4Cl)CC3)cc2N1 ? Its IC25 growth inhibition was > 160 µM

So, CC(CN1c2ccccc2Sc2ccccc21)N(C)C (centres undefined) ? Its IC25 growth inhibition was ≤ 160 µM

So, CC[C@H]1OC(=O)[C@H](C)[C@@H](O[C@H]2C[C@@](C)(OC)[C@@H](O)[C@H](C)O2)[C@H](C)[C@@H](O[C@@H]2O[C@H](C)C[C@H](N(C)C)[C@H]2O)[C@](C)(O)C[C@@H](C)C(=O)[C@H](C)[C@@H](O)[C@]1(C)O ? Its IC25 growth inhibition was < 1.25 µM

So, CCn1cc(C(=O)O)c(=O)c2cc(F)c(N3CCNCC3)cc21 ? Its IC25 growth inhibition was < 1.25 µM

So, CCOC(=O)C1=C(C)NC(C)=C(C(=O)OCC)C1c1ccccc1/C=C/C(=O)OC(C)(C)C ? Its IC25 growth inhibition was > 40 µM

So, COCCOC(=O)C1=C(C)NC(C)=C(C(=O)OC/C=C/c2ccccc2)C1c1cccc([N+](=O)[O-])c1 (centres undefined) ? Its IC25 growth inhibition was > 10 µM

So, Clc1ccc(COC(Cn2ccnc2)c2ccc(Cl)cc2Cl)c(Cl)c1 (centres undefined) ? Its IC25 growth inhibition was > 40 µM

====

tested on: Bacteroides uniformis; assay: IC25 growth inhibition; higher = less potent
List of IC25 growth inhibition values.

Example cases with answers are listed next.
Compound: CCC(C)(C)C(=O)O[C@H]1C[C@@H](C)C=C2C=C[C@H](C)[C@H](CC[C@@H]3C[C@@H](O)CC(=O)O3)[C@H]21 [Simvastatin]
IC25 growth inhibition: ≤ 40 µM
--
Compound: CN(C)C(=N)NC(=N)N [Metformin]
IC25 growth inhibition: > 160 µM
--
Compound: CCOC(=O)C1=C(C)NC(C)=C(C(=O)OC)C1c1cccc(Cl)c1Cl (stereo not given) [Felodipine]
IC25 growth inhibition: ≤ 20 µM
--
Compound: CCn1cc(C(=O)O)c(=O)c2cc(F)c(N3CCNCC3)cc21 [Norfloxacin]
IC25 growth inhibition: ≤ 20 µM
--
Compound: COc1cc(C(=O)NS(=O)(=O)c2ccccc2C)ccc1Cc1cn(C)c2ccc(NC(=O)OC3CCCC3)cc12 [Zafirlukast]
IC25 growth inhibition: ≤ 80 µM
--
Compound: COc1ccc2[nH]c([S+]([O-])Cc3ncc(C)c(OC)c3C)nc2c1 (stereo not given) [Omeprazole]
IC25 growth inhibition: > 160 µM
--
Compound: CNCCC(Oc1ccc(C(F)(F)F)cc1)c1ccccc1 (stereo not given) [Fluoxetine]
IC25 growth inhibition: ≤ 80 µM
--
Compound: Cc1c(N(C)CS(=O)(=O)O)c(=O)n(-c2ccccc2)n1C [Metamizol]
IC25 growth inhibition: > 160 µM
--
Compound: C[C@]12CCC3=C4CCC(=O)C=C4CC[C@H]3[C@@H]1CC[C@@]2(O)CC#N [Dienogest]
IC25 growth inhibition: > 80 µM
--
Compound: CN[C@H](CC(C)C)C(=O)N[C@H]1C(=O)N[C@@H](CC(N)=O)C(=O)N[C@H]2C(=O)N[C@H]3C(=O)N[C@H](C(=O)N[C@H](C(=O)O)c4cc(O)cc(O)c4-c4cc3ccc4O)[C@H](O)c3ccc(c(Cl)c3)Oc3cc2cc(c3O[C@@H]2O[C@H](CO)[C@@H](O)[C@H](O)[C@H]2O[C@H]2C[C@](C)(N)[C@H](O)[C@H](C)O2)Oc2ccc(cc2Cl)[C@H]1O [Vancomycin]
IC25 growth inhibition: ≤ 20 µM

# input for lookup
// compound O=C(O)Cc1cc(I)c(Oc2ccc(O)c(I)c2)c(I)c1 [Tiratricol] , assay Bacteroides uniformis, IC25 growth inhibition value: ≤ 80 µM
